# procedure text: VSV-G qHTS counterscreen for inhibitors of MERS-S pseudo-typed particle cell entry
# settings: VSV-G pseudotyped particle cell entry, luciferase counterscreen; series mostly up to 57.1 µM
Inconclusive results are not listed. Activity calls are given as the source filed them. Calls follow the shape of the full dose curve.
Give your call using only these classes: t for active, f for inactive

Please share the test call associated with COc1cc([C@@H]2c3cc4c(cc3C(O[C@@H]3O[C@@H]5CO[C@@H](c6cccs6)OC5[C@H](O)[C@H]3O)C3COC(=O)[C@@H]32)OCO4)cc(OC)c1O (some centres undefined) . t

Please let me know the test result on file for N#CC(c1ccc(Cl)cc1)c1c(Cl)cc(-n2ncc(=O)[nH]c2=O)cc1Cl (centres undefined) . t

Name the outcome recorded for C=CC1(C)CC(=O)C2(O)C(C)(O1)C(OC(C)=O)C(OC(=O)CCN(C)C)C1C(C)(C)CCC(O)C12C (centres undefined) in the assay. f

Assay outcome for CCCCc1oc2ccccc2c1C(=O)c1cc(I)c(OCCN(CC)CC)c(I)c1 : what was it? t

I'd appreciate the recorded outcome for Cc1nn(C)c2c1C(c1ccccc1F)=NCC(=O)N2C from this test. t

Answer briefly: the call reported for CC(=O)[C@]1(O)Cc2c(O)c3c(c(O)c2[C@@H](O[C@H]2C[C@H](N)[C@H](O)[C@H](C)O2)C1)C(=O)c1ccccc1C3=O in this assay. t

Test call for this molecule, please: COc1cccc2c1C(=O)c1c(O)c3c(c(O)c1C2=O)C[C@@](O)(C(=O)CO)CC3OC1CC(N2CCOC(OC)C2)C(O)C(C)O1 (some centres undefined) t

Which outcome did this test record for the molecule Cc1nnc2n1-c1sc(CCc3ccc(CC(C)C)cc3)cc1C(c1ccccc1Cl)=NC2C (centres undefined) ? t

Tell me the assay call for CC[C@@]1(O)C(=O)OCc2c1cc1n(c2=O)Cc2c-1nc1ccccc1c2/C=N/OC(C)(C)C please. t

Which outcome was entered for the molecule CC(=O)N1CCN(c2ccc(OC[C@H]3CO[C@](Cn4ccnc4)(c4ccc(Cl)cc4Cl)O3)cc2)CC1 in this test? t

Hi, do you know how CCc1c2c(nc3ccc(OC(=O)N4CCC(N5CCCCC5)CC4)cc13)-c1cc3c(c(=O)n1C2)COC(=O)[C@]3(O)CC came out in this test? t

Returns: the outcome recorded for CC(C)(C)C(=O)OCOP(=O)(COCCn1cnc2c(N)ncnc21)OCOC(=O)C(C)(C)C in this assay. t

Hi, do you know how O=c1[nH]c(=O)n([C@H]2C[C@H](O)[C@@H](CO)O2)cc1C(F)(F)F came out in this test? t

Called result for CCN(CC)CCNC(=O)c1c(C)[nH]c(/C=C2\C(=O)Nc3ccc(F)cc32)c1C t

###

# procedure text: VSV-G qHTS counterscreen for inhibitors of MERS-S pseudo-typed particle cell entry
# settings: VSV-G pseudotyped particle cell entry, luciferase counterscreen; series mostly up to 57.1 µM
Records with an inconclusive call do not appear. Calls of active or inactive are those of the source. The call rests on the fitted dose curve.
Outcomes you can answer with include only these: 1 (active), -1 (inactive)

Hi team, can someone confirm the assay call for Cc1cn([C@H]2C[C@H](N=[N+]=[N-])[C@@H](CO)O2)c(=O)[nH]c1=O ? 1

Answer briefly: the call reported for C[C@@H](c1nc(-c2ccc(C#N)cc2)cs1)[C@](O)(Cn1cncn1)c1cc(F)ccc1F in this assay. 1

Any idea what this test logged for O=C1c2c(O)ccc(O)c2C(=O)c2c(NCCNCCO)ccc(NCCNCCO)c21 ? 1

What classification did COc1ccc2cc1Oc1ccc(cc1)C[C@H]1c3c(cc4c(c3Oc3cc5c(cc3OC)CCN(C)[C@@H]5C2)OCO4)CCN1C end up with in this test? 1

Returns: the outcome recorded for O=C(Nc1ccc([N+](=O)[O-])cc1Cl)c1cc(Cl)ccc1O in this assay. 1

For CC[C@@]1(O)C(=O)OCc2c1cc1n(c2=O)Cc2cc3c(CN(C)C)c(O)ccc3nc2-1 , what call appears in the results of this test? 1

Entry COC(=O)C1=C(C)NC(C)=C(C(=O)OCC(C)C)C1c1ccccc1[N+](=O)[O-] (stereo unspecified) : call = ? 1

Kindly provide the recorded test outcome for the following compound: CC(C)OC(=O)[C@H](C)N[P@](=O)(CO[C@H](C)Cn1cnc2c(N)ncnc21)Oc1ccccc1 1

Could you kindly confirm the outcome this assay logged for CCCCCCCCCCCCCC[n+]1ccc(C)cc1 ? 1

Tell me the recorded outcome of this test for O=C(Nc1ccc(Cl)cc1)Nc1ccc(Cl)c(C(F)(F)F)c1 . 1

Status in this test for C[C@@H]1CCO[C@H]2Cn3cc(C(=O)NCc4ccc(F)cc4F)c(=O)c(O)c3C(=O)N12 ? 1

Entry CC[C@H](C)C(=O)O[C@H]1C[C@@H](C)C=C2C=C[C@H](C)[C@H](CC[C@@H]3C[C@@H](O)CC(=O)O3)[C@H]21 : call = ? -1

Write down the call the test reported for this compound. Item: COc1cc2nccc(Oc3ccc(NC(=O)C4(C(=O)Nc5ccc(F)cc5)CC4)cc3)c2cc1OC 1

Please state the recorded outcome for this compound: CN1CCCCC1CCN1c2ccccc2Sc2ccc(S(C)=O)cc21 (stereo unspecified) 1

Test call, this compound: O=C1CCc2ccc(OCCCCN3CCN(c4cccc(Cl)c4Cl)CC3)cc2N1 1

Returns: the outcome recorded for C[C@H]1[C@H](OC(=O)CCC(=O)O)O[C@@H]2O[C@@]3(C)CC[C@H]4[C@H](C)CC[C@@H]1[C@@]24OO3 in this assay. 1

So what was the verdict on CN(C)CC/C=C1\c2ccccc2Sc2ccc(Cl)cc21 in this test? 1

Any idea what this test logged for C=C1c2c(Cl)ccc(O)c2C(O)=C2C(=O)[C@@]3(O)C(O)=C(C(N)=O)C(=O)[C@@H](N(C)C)[C@@H]3[C@@H](O)[C@H]12 ? 1

For this compound, state the assay outcome: Cc1oncc1C(=O)Nc1ccc(C(F)(F)F)cc1 -1

Short answer needed: outcome of this test for Nc1nc(Cl)nc2c1ncn2C1CC(O)C(CO)O1 (stereo unspecified) ? 1

Call for entry CC[C@@H]([C@H](C)O)n1ncn(-c2ccc(N3CCN(c4ccc(OC[C@@H]5CO[C@@](Cn6cncn6)(c6ccc(F)cc6F)C5)cc4)CC3)cc2)c1=O : 1

Tell me the recorded outcome of this test for CC(C)C(=O)Oc1ccc(CO)cc1[C@H](CCN(C(C)C)C(C)C)c1ccccc1 . 1

Test call, this compound: COc1cccc2c1C(=O)c1c(O)c3c(c(O)c1C2=O)C[C@@](O)(C(=O)CO)C[C@@H]3O[C@H]1C[C@H](N)[C@@H](O)[C@H](C)O1 1

GET /call?item= CNC(=O)c1cc(Oc2ccc(NC(=O)Nc3ccc(Cl)c(C(F)(F)F)c3)c(F)c2)ccn1 returns the recorded outcome of this test. 1

Could you please tell me the result logged for CC(=O)OCC1=C(C(=O)O)N2C(=O)[C@@H](NC(=O)Cc3cccs3)[C@H]2SC1 in this assay? -1

Please share the test call associated with COc1cccc2c1C(=O)c1c(O)c3c(c(O)c1C2=O)C[C@@](O)(C(=O)CO)C[C@@H]3O[C@H]1C[C@H](N)[C@H](OC2CCCCO2)[C@H](C)O1 (stereo partly specified) . -1

Given NCCNc1ccc(NCCN)c2c1C(=O)c1ccncc1C2=O , state the outcome it received in this test. 1

For CCN(CC)Cc1cc(Nc2ccnc3cc(Cl)ccc23)ccc1O , which call appears in the assay record? 1

Could you kindly confirm the outcome this assay logged for Cc1ccc(NC(=O)c2ccc(CN3CCN(C)CC3)cc2)cc1Nc1nccc(-c2cccnc2)n1 ? 1

Entry CO[C@@]12[C@H](COC(N)=O)C3=C(C(=O)C(C)=C(N)C3=O)N1C[C@@H]1N[C@@H]12 : call = ? 1

In this assay, the call recorded for O=c1c(C2CC(c3ccc(-c4ccc(Br)cc4)cc3)Cc3ccccc32)c(O)sc2ccccc12 (stereo unspecified) was what? 1

Please indicate how the test categorized CC(C)OC(=O)OCOP(=O)(CO[C@H](C)Cn1cnc2c(N)ncnc21)OCOC(=O)OC(C)C . 1

Outcome logged for CC(CN(C)C)CN1c2ccccc2CCc2ccccc21 (stereo unspecified) in this assay: -1

Tell me the assay call for COc1ccc(Cc2nccc3cc(OC)c(OC)cc23)cc1OC please. 1

Answer briefly: the call reported for C[n+]1c2cc(N)ccc2cc2ccc(N)cc21 (tested in a mixture with another compound) in this assay. 1

Recorded test outcome, item CC(C)(C)c1ccc(C(=O)CCCN2CCC(OC(c3ccccc3)c3ccccc3)CC2)cc1 1
